- System: 996289-038-R-J1-PDC spheroid viability
- Protocol description: Anticancer human tumor 996289-038-R-J1-PDC patient-derived colon adenocarcinoma cell line growth inhibition [PI3K]
- Experimental conditions: second compound 0.1 µM; first compound 10 µM; stronger effect = lower value; spheroids with HUVEC and MSC
Record form. Attribute: viability, T/C. Fill in for each entry.
One number for each entry, in %.

Below: 4 molecules and their reported viability, T/C.
# Molecule, Unit spec, viability, T/C
records = [
    ("C=CC(=O)N1CCN(c2nc(=O)n(-c3c(C)ccnc3C(C)C)c3nc(-c4c(O)cccc4F)c(F)cc23)C(C)C1 (stereo not given) + COc1c(OCCCN2CCOCC2)ccc2c3n(c(=NC(=O)c4cnc(N)nc4)nc12)CCN3", "%", 71.9),
    ("CC1(C)CCC(Nc2ncc(C(F)(F)F)c(-c3c[nH]c4c(P(C)(C)=O)c(C#N)ccc34)n2)CN1 (stereo not given) + CC(Nc1ccc2c(c1)OCCn1cc(N3C(=O)OCC3C(F)F)nc1-2)C(N)=O", "%", 22.9),
    ("CC1(C)CCC(Nc2ncc(C(F)(F)F)c(-c3c[nH]c4c(P(C)(C)=O)c(C#N)ccc34)n2)CN1 (stereo not given) + Cc1nc(NC(=O)N2CCCC2C(N)=O)sc1-c1ccnc(C(C)(C)C(F)(F)F)c1", "%", 30.8),
    ("CCCS(=O)(=O)Nc1ccc(F)c(C(=O)c2c[nH]c3ncc(-c4ccc(Cl)cc4)cc23)c1F + COc1c(OCCCN2CCOCC2)ccc2c3n(c(=NC(=O)c4cnc(N)nc4)nc12)CCN3", "%", 12.2),
]

Now for another entry.
Q: Give the measured viability, T/C of CC1(C)CCC(CN2CCN(c3ccc(C(=O)NS(=O)(=O)c4ccc(NCC5CCOCC5)c([N+](=O)[O-])c4)c(Oc4cnc5[nH]ccc5c4)c3)CC2)=C(c2ccc(Cl)cc2)C1 + Cc1nc(NC(=O)N2CCCC2C(N)=O)sc1-c1ccnc(C(C)(C)C(F)(F)F)c1 .
Ans: 42.8

###

Record form. Attribute: IC50. Fill in for each entry.
- Test system: 996289-038-R-J1-PDC spheroid viability
- Protocol description: Anticancer human tumor 996289-038-R-J1-PDC cell line growth inhibition [PI3K];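 further: spheroids exposed to compounds for seven days before viability read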
- Experimental conditions: curve of first compound; second compound 1 µM; spheroids with HUVEC and MSC

Below: 2 molecules and their reported IC50.
# Molecule, Subject of test, IC50
measured = [
    ("CC1(C)CCC(Nc2ncc(C(F)(F)F)c(-c3c[nH]c4c(P(C)(C)=O)c(C#N)ccc34)n2)CN1 (stereo not drawn) + CC(Nc1ncnc2nc[nH]c12)c1cc2cccc(Cl)c2c(=O)n1-c1ccccc1", "996289-038-R-J1-PDC spheroid viability", "5.43 µM"),
    ("C[C@@H](NC(=O)c1ncnc(N)c1Cl)c1ncc(C(=O)Nc2cc(C(F)(F)F)c(Cl)cn2)s1 + CC(Nc1ncnc2nc[nH]c12)c1cc2cccc(Cl)c2c(=O)n1-c1ccccc1", "996289-038-R-J1-PDC spheroid viability", "> 10 µM"),
]

Now for another entry.
Q: Give the measured IC50 of C=CC(=O)N1CCN(c2nc(=O)n(-c3c(C)ccnc3C(C)C)c3nc(-c4c(O)cccc4F)c(F)cc23)C(C)C1 (stereo not drawn) + Cc1nc(NC(=O)N2CCCC2C(N)=O)sc1-c1ccnc(C(C)(C)C(F)(F)F)c1 .
Ans: > 10 µM

###

- System: 996289-038-R-J1-PDC spheroid viability
- Protocol description: Anticancer human tumor 996289-038-R-J1-PDC cell line growth inhibition [PI3K];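 further: spheroids exposed to compounds for seven days before viability read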;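 on viability, T/C: luminescence used as a proxy for viable cell amount; percent viability relative to DMSO vehicle control as 100%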
- Experimental conditions: second compound 1 µM; first compound 0.949 µM; stronger effect = lower value; spheroids with HUVEC and MSC
- Text: Combinatorial screen of targeted agents with the PI3K inhibitors inavolisib, alpelisib, duvelisib, and copanlisib in multi-cell type tumor spheroids A high-throughput screen of multi-cell type tumor spheroids was designed to identify active combinations of targeted small molecules and PI3K pathway inhibitors. […] Compounds. […] If the clinical Cmax for an agent had not been determined, the highest concentration tested was 10 microM. […]
Quantity kind: viability, T/C (%)
Numbers only, in %.

Below: 2 compounds and their reported viability, T/C.
# Compound, Measured value
measured = [
    ("Cn1cnc2c(F)c(Nc3ccc(Br)cc3Cl)c(C(=O)NOCCO)cc21 + CC(Nc1ccc2c(c1)OCCn1cc(N3C(=O)OCC3C(F)F)nc1-2)C(N)=O", 18.9),
    ("Cn1cnc2c(F)c(Nc3ccc(Br)cc3Cl)c(C(=O)NOCCO)cc21 + COc1c(OCCCN2CCOCC2)ccc2c3n(c(=NC(=O)c4cnc(N)nc4)nc12)CCN3", 4.84),
]

// each compound listed below needs its viability, T/C
1. Cn1cnc2c(F)c(Nc3ccc(Br)cc3Cl)c(C(=O)NOCCO)cc21 + Cc1nc(NC(=O)N2CCCC2C(N)=O)sc1-c1ccnc(C(C)(C)C(F)(F)F)c1
2. Cn1cnc2c(F)c(Nc3ccc(Br)cc3Cl)c(C(=O)NOCCO)cc21 + CC(Nc1ncnc2nc[nH]c12)c1cc2cccc(Cl)c2c(=O)n1-c1ccccc1

Ans:
[22.1, 33.6]

###

- Tested on: 996289-038-R-J1-PDC spheroid viability
- Protocol description: Anticancer human tumor 996289-038-R-J1-PDC cell line growth inhibition [PI3K];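 further: spheroids exposed to compounds for seven days before viability read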
- Experimental conditions: curve of first compound; second compound 0.0316 µM; spheroids with HUVEC and MSC
Record form. Attribute: pIC50. Fill in for each entry.
One number for each entry, as −log10 of the molar value.

# Molecule, Subject of test, pIC50
records = [
    ("C#Cc1c(F)ccc2cc(O)cc(-c3ncc4c(N5CC6CCC(C5)N6)nc(OCC56CCCN5CC(F)C6)nc4c3F)c12 (stereo unspecified) + CC(Nc1ncnc2nc[nH]c12)c1cc2cccc(Cl)c2c(=O)n1-c1ccccc1", "996289-038-R-J1-PDC spheroid viability", 5.94),
    ("Cn1cnc2c(F)c(Nc3ccc(Br)cc3Cl)c(C(=O)NOCCO)cc21 + CC(Nc1ncnc2nc[nH]c12)c1cc2cccc(Cl)c2c(=O)n1-c1ccccc1", "996289-038-R-J1-PDC spheroid viability", 6.68),
    ("CC1(C)CCC(Nc2ncc(C(F)(F)F)c(-c3c[nH]c4c(P(C)(C)=O)c(C#N)ccc34)n2)CN1 (stereo unspecified) + Cc1nc(NC(=O)N2CCCC2C(N)=O)sc1-c1ccnc(C(C)(C)C(F)(F)F)c1", "996289-038-R-J1-PDC spheroid viability", 5.19),
]

// each molecule listed below needs its pIC50
1. Cn1cnc2c(F)c(Nc3ccc(Br)cc3Cl)c(C(=O)NOCCO)cc21 + Cc1nc(NC(=O)N2CCCC2C(N)=O)sc1-c1ccnc(C(C)(C)C(F)(F)F)c1
2. CC(C)n1nc(-c2ccc3oc(N)nc3c2)c2c(N)ncnc21 + CC(Nc1ccc2c(c1)OCCn1cc(N3C(=O)OCC3C(F)F)nc1-2)C(N)=O

Ans:
1. 6.83
2. 7.50

###

- Test system: 996289-038-R-J1-PDC spheroid viability
- Protocol description: Anticancer human tumor 996289-038-R-J1-PDC cell line growth inhibition [PI3K];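 further: spheroids exposed to compounds for seven days before viability read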;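 on viability, T/C: luminescence used as a proxy for viable cell amount; percent viability relative to DMSO vehicle control as 100%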
- Experimental conditions: compound 0.316 µM; stronger effect = lower value; spheroids with HUVEC and MSC
Quantity kind: viability, T/C

Below: 5 molecules and their reported viability, T/C.
# Molecule, Quantity kind, Measured value
records = [
    ("CC1(C)CCC(Nc2ncc(C(F)(F)F)c(-c3c[nH]c4c(P(C)(C)=O)c(C#N)ccc34)n2)CN1 (stereo not drawn)", "viability, T/C", "86% [middle of 4 runs]"),
    ("Cn1nccc1Nc1nccc(-c2ccn(C(CO)c3ccc(Cl)c(F)c3)c(=O)c2)n1 (stereo not drawn)", "viability, T/C", "112% [middle of 4 runs]"),
    ("CC(Nc1ncnc2nc[nH]c12)c1cc2cccc(Cl)c2c(=O)n1-c1ccccc1 (stereo not drawn)", "viability, T/C", "97.6% [middle of 8 runs]"),
    ("CNC(=O)c1ccc(N2C(=S)N(c3ccc(C#N)c(C(F)(F)F)c3)C(=O)C2(C)C)cc1F", "viability, T/C", "111% [middle of 4 runs]"),
    ("CCCS(=O)(=O)Nc1ccc(F)c(C(=O)c2c[nH]c3ncc(-c4ccc(Cl)cc4)cc23)c1F", "viability, T/C", "100% [middle of 4 runs]"),
]

// each molecule listed below needs its viability, T/C
1. COc1c(OCCCN2CCOCC2)ccc2c3n(c(=NC(=O)c4cnc(N)nc4)nc12)CCN3
2. CC(C)NCC(C(=O)N1CCN(c2ncnc3c2C(C)CC3O)CC1)c1ccc(Cl)cc1 (stereo not drawn)
3. Cn1ncc(Cl)c1-c1cc(C(=O)NC(CN)Cc2cccc(F)c2)sc1Cl (stereo not drawn)
4. CCN1CCN(Cc2ccc(Nc3ncc(F)c(-c4cc(F)c5nc(C)n(C(C)C)c5c4)n3)nc2)CC1
5. CC1(C)CCC(CN2CCN(c3ccc(C(=O)NS(=O)(=O)c4ccc(NCC5CCOCC5)c([N+](=O)[O-])c4)c(Oc4cnc5[nH]ccc5c4)c3)CC2)=C(c2ccc(Cl)cc2)C1
6. C#Cc1c(F)ccc2cc(O)cc(-c3ncc4c(N5CC6CCC(C5)N6)nc(OCC56CCCN5CC(F)C6)nc4c3F)c12 (stereo not drawn)

Ans:
["36.1% [middle of 8 runs]", "99.8% [middle of 4 runs]", "84% [middle of 4 runs]", "85.7% [middle of 4 runs]", "101% [middle of 4 runs]", "70.2% [middle of 4 runs]"]

// each molecule listed below needs its viability, T/C
1. CC(Nc1ccc2c(c1)OCCn1cc(N3C(=O)OCC3C(F)F)nc1-2)C(N)=O (stereo not drawn)
2. Cc1nc(NC(=O)N2CCCC2C(N)=O)sc1-c1ccnc(C(C)(C)C(F)(F)F)c1 (stereo not drawn)

Ans:
1. 80% [middle of 8 runs]
2. 85.8% [middle of 8 runs]
